- System: 201T
- TEST_SUMMARY: relative viability (nuclei count vs DMSO), 5 days (fraction); higher = more cells survive
- EXPERIMENTAL_PARAMETERS: first compound 1.265 µM
Listed here are molecules together with their documented relative viability.

Some molecules with recorded relative viability:
COc1cc(N2CCC(C(N)=O)CC2)ccc1Nc1nc(N)c(Cl)c(Nc2ccccc2S(=O)(=O)C(C)C)n1 [HG-5-88-01] + CS(=O)(=O)N1CCN(Cc2cc3nc(-c4cccc5[nH]ncc45)nc(N4CCOCC4)c3s2)CC1 [Pictilisib] (partner 1 µM)
0.729
Clc1ccc(Nc2nnc(Cc3ccncc3)c3ccccc23)cc1 [Vatalanib] + CCNC(=O)c1noc(-c2cc(C(C)C)c(O)cc2O)c1-c1ccc(CN2CCOCC2)cc1 [Luminespib] (partner 0.01 µM)
1.04
COc1cc(N2CCC(C(N)=O)CC2)ccc1Nc1nc(N)c(Cl)c(Nc2ccccc2S(=O)(=O)C(C)C)n1 [HG-5-88-01] + CCNC(=O)c1noc(-c2cc(C(C)C)c(O)cc2O)c1-c1ccc(CN2CCOCC2)cc1 [Luminespib] (partner 0.01 µM)
1.03

Pending molecule:
Task: Provide one value: measured relative viability of Clc1ccc(Nc2nnc(Cc3ccncc3)c3ccccc23)cc1 [Vatalanib] + Cc1cc(Nc2cc(N3CCN(C)CC3)nc(Sc3ccc(NC(=O)C4CC4)cc3)n2)n[nH]1 [Tozasertib] (partner 0.1 µM)
Result: 0.896

###

- System: NCI-H661
- TEST_SUMMARY: relative viability (nuclei count vs DMSO), 5 days (fraction); higher = more cells survive
- EXPERIMENTAL_PARAMETERS: first compound 0.4 µM
Listed here are compounds together with their documented relative viability.
Output: the number by itself.

C[C@@H]1CN(CC(=O)Nc2ccc3c(c2)Cc2cccc(-c4cc(=O)cc(N5CCOCC5)o4)c2S3)C[C@H](C)O1 + COc1cc2c(Oc3ccc(NC(=O)C4(C(=O)Nc5ccc(F)cc5)CC4)cc3F)ccnc2cc1OCCCN1CCOCC1 [Foretinib] (partner 0.25 µM)
0.953

Pending compound:
Task: Provide one value: measured relative viability of C[C@@H]1CN(CC(=O)Nc2ccc3c(c2)Cc2cccc(-c4cc(=O)cc(N5CCOCC5)o4)c2S3)C[C@H](C)O1 + CS(=O)(=O)N1CCN(Cc2cc3nc(-c4cccc5[nH]ncc45)nc(N4CCOCC4)c3s2)CC1 [Pictilisib] (partner 1 µM)
Result: 0.381

###

Listed here are compounds together with their documented relative viability.
- Tested on: NCI-H358
- TEST_SUMMARY: relative viability (nuclei count vs DMSO), 5 days (fraction); higher = more cells survive
- EXPERIMENTAL_PARAMETERS: first compound 0.04 µM
Output: the number by itself.

COc1cc(N2CCC(C(N)=O)CC2)ccc1Nc1nc(N)c(Cl)c(Nc2ccccc2S(=O)(=O)C(C)C)n1 [HG-5-88-01] + Cc1cc(Nc2cc(N3CCN(C)CC3)nc(Sc3ccc(NC(=O)C4CC4)cc3)n2)n[nH]1 [Tozasertib] (partner 0.1 µM)
0.107

Pending compound:
Task: State recorded relative viability with NCI-H358, entry C[C@@H]1CN(CC(=O)Nc2ccc3c(c2)Cc2cccc(-c4cc(=O)cc(N5CCOCC5)o4)c2S3)C[C@H](C)O1 + Nc1ncn([C@H]2C[C@H](O)[C@@H](CO)O2)c(=O)n1 [Decitabine] (partner 2 µM) , no comment.
Result: 0.181
